- Experiment: Human clinical studies (tolerability and pharmacokinetics)
- Assay type: in vivo
- Run Conditions: human, in vivo, oral; read-out: mean absolute bioavailability

- Item Smiles: "CCCCc1ncc(/C=C(\\Cc2cccs2)C(=O)O)n1Cc1ccc(C(=O)O)cc1.CS(=O)(=O)O"
  bioavailability: "~13%"
